Parameter: kon. Scope: all listed entries.
- TARGET_OR_TEST_SYSTEM: T1, human tenascin-C rCd4-His-FBG (rat; human, UniProt P05540 207-392, limits assumed)
- T1 construct: domain: domains 3 and 4; C-terminal FBG fusion; biotinylated in the ELISA and HTRF screens; also called Hu TNC; human TNC rCd4-His-FBG; not shown: 6His tag
- T1 sequence (chain (part 1 of 2)): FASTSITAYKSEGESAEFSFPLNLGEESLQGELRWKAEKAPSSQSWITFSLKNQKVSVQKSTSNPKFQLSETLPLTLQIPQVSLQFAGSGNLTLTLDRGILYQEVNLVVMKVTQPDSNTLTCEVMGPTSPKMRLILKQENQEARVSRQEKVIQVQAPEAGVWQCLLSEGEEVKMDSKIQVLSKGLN
- T1 sequence (chain (part 2 of 2)): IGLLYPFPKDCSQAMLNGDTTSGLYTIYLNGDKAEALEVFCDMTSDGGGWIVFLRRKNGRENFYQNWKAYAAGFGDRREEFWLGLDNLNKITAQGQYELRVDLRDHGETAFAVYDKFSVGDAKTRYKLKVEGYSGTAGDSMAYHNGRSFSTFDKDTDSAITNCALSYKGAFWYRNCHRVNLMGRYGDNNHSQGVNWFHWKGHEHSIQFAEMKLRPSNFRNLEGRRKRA
- EXPERIMENT_NOTES: SPR, captured purified IgG4, 37 C
# number only, unit M⁻¹ s⁻¹ dropped from output

Sample answers from the record:
165_13_B1 human IgG4 (antibody, V domains shown, human IgG4 with hinge S241P) VH: QVQLVESGGGLVQPGRSLRLSCAASGFTFDDYAMHWVRQAPGKGLEWVSGISGSGGSTYYADSVKGRFTISRDNAKNSLYLQMNSLRAEDTALYYCAKVMSSMEDAFDIWGQGTMVTVSS VL: DIQMTQSPASLPTPVGDRVTITCRASQYIQGFLNWYQQKPGKAPKLLIYDASNLETGVPSRFSGSGSGTDFTLTISSLQPEDFATYYCQQSYSTPQTFGQGTKVDIKR :: 7.27e+06
B12 human IgG4 (antibody, V domains shown, human IgG4 with hinge S241P; also called B12 parent; B12-hIgG4) VH: QVQLVESGGGLVQPGRSLRLSCAASGFTFDDYAMHWVRQAPGKGLEWVSGISGSGGSTYYADSVKGRFTISRDNAKNSLYLQMNSLRAEDTALYYCAKDISAVPDTFDIWGQGTMVTVSS VL: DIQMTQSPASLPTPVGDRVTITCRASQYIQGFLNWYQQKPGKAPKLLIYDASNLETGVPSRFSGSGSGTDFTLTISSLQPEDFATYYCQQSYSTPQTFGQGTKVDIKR :: 4.71e+06
2A5 human IgG4 (antibody, V domains shown, human IgG4 with hinge S241P; also called 2A5 parent) VH: EVRLVQSGAEVKKPGASVKVSCKVSGYTLTELSMHWVRQAPGKGLEWMGGFDPEDGETIYAQKFQGRVTMTEDTSTDTAYMELSSLRSEDTAVYYCATAQKETYALTYWGQGTLVTVSS VL: DIQMTQSPASLPTSVGDRVTITCRASQYIQGFLNWYQQKPGKAPRLLIYAASTLQDGVPSRFSGSGYGTDFTLTISSLQPEDFATYYCQQSYSTPWTFGQGTKVEIKR :: 1.36e+06

Read the next record carefully.
# kon of 160_01_A4 human IgG4 (antibody, V domains shown, human IgG4 with hinge S241P; also called Antibody 160 01 A4 (derived from 2A5)) VH: EVRLVQSGAEVKKPGASVKVSCKVSGYTLTELSMHWVRQAPGKGLEWMGGFDPEDGETIYAQKFQGRVTMTEDTSTDTAYMELSSLRSEDTAVYYCATAQKETLGNAIWGQGTLVTVSS VL: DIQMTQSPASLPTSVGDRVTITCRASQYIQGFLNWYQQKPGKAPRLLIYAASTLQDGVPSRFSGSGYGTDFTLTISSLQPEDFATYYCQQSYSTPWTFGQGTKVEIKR = 2.35e+06
